TARGET ENTITY: T1, integrin αvβ3, purified from human placenta (human, UniProt P06756 31-1048; P05106 27-788)
T1 construct: mature; Native heterodimer, immobilized on ELISA plates or on the BIAcore chip; biotinylated in capture lift and capture ELISA screens; also called αvβ3 receptor; vitronectin receptor
T1 sequence (P06756 31-1048, form in doubt, chain 1 of 2): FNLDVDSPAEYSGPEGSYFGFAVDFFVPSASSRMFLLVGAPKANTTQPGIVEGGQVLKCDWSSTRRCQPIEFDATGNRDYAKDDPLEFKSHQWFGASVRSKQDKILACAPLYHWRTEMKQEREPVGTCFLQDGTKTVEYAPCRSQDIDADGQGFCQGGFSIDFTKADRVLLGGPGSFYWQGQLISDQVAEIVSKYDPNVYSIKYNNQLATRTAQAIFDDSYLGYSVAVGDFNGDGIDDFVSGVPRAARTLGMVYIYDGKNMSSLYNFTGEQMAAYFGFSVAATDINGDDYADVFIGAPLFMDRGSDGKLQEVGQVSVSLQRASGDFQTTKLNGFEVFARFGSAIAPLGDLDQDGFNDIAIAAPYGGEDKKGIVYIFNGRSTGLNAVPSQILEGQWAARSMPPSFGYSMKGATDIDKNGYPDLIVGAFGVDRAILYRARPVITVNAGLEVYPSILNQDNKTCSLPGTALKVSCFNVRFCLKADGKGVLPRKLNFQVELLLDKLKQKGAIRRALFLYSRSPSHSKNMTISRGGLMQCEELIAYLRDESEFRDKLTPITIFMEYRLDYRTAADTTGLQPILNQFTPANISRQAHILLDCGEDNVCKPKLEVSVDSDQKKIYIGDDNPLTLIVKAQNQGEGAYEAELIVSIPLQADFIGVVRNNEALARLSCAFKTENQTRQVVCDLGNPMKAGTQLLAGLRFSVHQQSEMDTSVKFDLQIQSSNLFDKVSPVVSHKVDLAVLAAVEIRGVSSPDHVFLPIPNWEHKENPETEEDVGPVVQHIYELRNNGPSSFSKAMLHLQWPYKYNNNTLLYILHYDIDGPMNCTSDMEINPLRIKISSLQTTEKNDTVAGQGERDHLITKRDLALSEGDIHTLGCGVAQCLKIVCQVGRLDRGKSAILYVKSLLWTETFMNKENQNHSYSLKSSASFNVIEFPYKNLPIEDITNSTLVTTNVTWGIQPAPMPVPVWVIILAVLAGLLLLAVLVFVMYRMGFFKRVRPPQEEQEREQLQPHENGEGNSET
T1 sequence (P05106 27-788, form in doubt, chain 2 of 2): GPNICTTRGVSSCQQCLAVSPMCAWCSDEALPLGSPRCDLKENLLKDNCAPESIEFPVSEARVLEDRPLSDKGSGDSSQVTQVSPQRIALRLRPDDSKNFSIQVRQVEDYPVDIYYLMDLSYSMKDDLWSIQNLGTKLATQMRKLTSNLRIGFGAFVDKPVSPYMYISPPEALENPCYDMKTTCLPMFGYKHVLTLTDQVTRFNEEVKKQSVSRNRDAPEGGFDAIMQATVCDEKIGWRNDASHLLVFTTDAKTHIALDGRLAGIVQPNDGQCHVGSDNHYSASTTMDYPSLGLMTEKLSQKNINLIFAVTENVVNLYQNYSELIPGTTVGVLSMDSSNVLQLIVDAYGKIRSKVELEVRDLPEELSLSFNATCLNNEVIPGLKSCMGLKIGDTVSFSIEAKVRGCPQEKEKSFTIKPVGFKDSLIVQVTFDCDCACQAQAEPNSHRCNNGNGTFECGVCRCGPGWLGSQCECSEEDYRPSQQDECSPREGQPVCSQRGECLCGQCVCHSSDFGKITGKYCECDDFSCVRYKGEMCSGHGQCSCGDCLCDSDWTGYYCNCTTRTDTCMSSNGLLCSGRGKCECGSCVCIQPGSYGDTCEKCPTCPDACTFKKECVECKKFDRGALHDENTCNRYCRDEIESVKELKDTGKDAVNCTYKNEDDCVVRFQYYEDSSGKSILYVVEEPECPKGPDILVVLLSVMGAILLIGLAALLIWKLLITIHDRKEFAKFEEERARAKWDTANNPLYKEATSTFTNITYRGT
EXPERIMENT SUMMARY: SPR (BIAcore), purified Fab over immobilized αvβ3
For each entry below, report its kon value.
Numbers only, in M⁻¹ s⁻¹.

Quick request: kon for each listed item, please.
1. LM609 grafted antibody combinatorial clone 56 (Fab, V domains shown, Fab) VH: QVQLVESGGGVVQPGRSLRLSCAASGFTFSSYDMSWVRQAPGKGLEWVAKVSSGGGSTYYPDTVQGRFTISRDNSKNTLYLQMNSLRAEDTAVYYCARHNYGSFASWGQGTTVTVSS VL: EIVLTQSPATLSLSPGERATLSCQASQSISNFLHWYQQRPGQAPRLLIRYRSQSISGIPARFSGSGSGTDFTLTISSLEPEDFAVYYCQQSGSWPHTFGGGTKVEIK
2. LM609 grafted antibody combinatorial clone C37 (Fab, V domains shown, Fab) VH: QVQLVESGGGVVQPGRSLRLSCAASGFTFSSYDMSWVRQAPGKGLEWVAKVSSGGGSTYYLDTVQGRFTISRDNSKNTLYLQMNSLRAEDTAVYYCARHNYGSFYEWGQGTTVTVSS VL: EIVLTQSPATLSLSPGERATLSCQASQSISNHLHWYQQRPGQAPRLLIRYRSQSISGIPARFSGSGSGTDFTLTISSLEPEDFAVYYCQQSGSWPLTFGGGTKVEIK

[266000, 448000]

Values compiled from patent US20060204492A1.
